- TARGET_SYSTEM: T1, human LAP-TGFB1 Fc fusion (human)
- T1 construct: also called human LAP-TGFβ1-Fc; human LAP-TGFβ-Fc isoform 1
- T1 sequence (chain, as listed by the source limits assumed): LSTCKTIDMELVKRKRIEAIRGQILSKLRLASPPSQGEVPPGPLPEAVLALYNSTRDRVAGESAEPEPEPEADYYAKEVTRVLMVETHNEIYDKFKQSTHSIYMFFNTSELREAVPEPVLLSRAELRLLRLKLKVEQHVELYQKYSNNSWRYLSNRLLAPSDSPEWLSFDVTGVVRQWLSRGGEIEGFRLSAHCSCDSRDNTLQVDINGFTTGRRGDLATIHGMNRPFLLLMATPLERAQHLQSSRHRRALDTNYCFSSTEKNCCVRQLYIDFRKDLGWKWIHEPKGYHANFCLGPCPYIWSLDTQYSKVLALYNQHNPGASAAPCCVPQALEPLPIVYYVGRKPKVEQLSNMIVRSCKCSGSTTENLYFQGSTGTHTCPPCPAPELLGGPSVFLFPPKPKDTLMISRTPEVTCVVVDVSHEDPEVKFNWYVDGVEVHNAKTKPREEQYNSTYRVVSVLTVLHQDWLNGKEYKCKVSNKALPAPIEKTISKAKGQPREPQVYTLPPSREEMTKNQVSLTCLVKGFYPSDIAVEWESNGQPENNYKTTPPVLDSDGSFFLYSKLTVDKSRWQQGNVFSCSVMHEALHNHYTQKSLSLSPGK
- RUN_DESCRIPTION: SPR, antigen-Fc captured, Fab analyte
MEASURED_PROPERTY: koff (s⁻¹)
Give your result in s⁻¹ as a bare value.

- BINDER: "20E6 Fab (80BGJ/85BIT) (Fab, V domains shown, also called 20E6 (80BGJ); 20E6 (85BIT)) VH: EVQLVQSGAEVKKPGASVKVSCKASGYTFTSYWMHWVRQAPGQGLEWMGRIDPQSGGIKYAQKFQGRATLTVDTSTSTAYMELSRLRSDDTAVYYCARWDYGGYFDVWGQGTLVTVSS VL: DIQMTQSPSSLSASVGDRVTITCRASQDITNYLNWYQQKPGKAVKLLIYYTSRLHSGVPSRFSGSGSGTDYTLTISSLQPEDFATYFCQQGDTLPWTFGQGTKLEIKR"
  koff, s⁻¹: 0.103

Q: Look up koff: VH W33Y/VL R53Y (91BJM) (Fab, V domains shown, also called VH33/VL53) VH: EVQLVQSGAEVKKPGASVKVSCKASGYTFTSYYMHWVRQAPGQGLEWMGRIDPQSGGIKYAQKFQGRATLTVDTSTSTAYMELSRLRSDDTAVYYCARWDYGGYFDVWGQGTLVTVSS VL: DIQMTQSPSSLSASVGDRVTITCRASQDITNYLNWYQQKPGKAVKLLIYYTSYLHSGVPSRFSGSGSGTDYTLTISSLQPEDFATYFCQQGDTLPWTFGQGTKLEIKR
Result: 0.0154

Q: # lookup: koff of VH W33Y/VL T93Y (92BJM) (Fab, V domains shown, also called VH33/VL93) VH: EVQLVQSGAEVKKPGASVKVSCKASGYTFTSYYMHWVRQAPGQGLEWMGRIDPQSGGIKYAQKFQGRATLTVDTSTSTAYMELSRLRSDDTAVYYCARWDYGGYFDVWGQGTLVTVSS VL: DIQMTQSPSSLSASVGDRVTITCRASQDITNYLNWYQQKPGKAVKLLIYYTSRLHSGVPSRFSGSGSGTDYTLTISSLQPEDFATYFCQQGDYLPWTFGQGTKLEIKR
Result: 0.0134
